Data origin, for the record: patent US20170355757A1

molecular target: T1, human C5 R885H-mmh (human, UniProt P01031 19-1676); experiment: SPR, mAb captured via anti-hFc, 25C
T1 construct: also called human C5 variant R885H
REPORTED_PROPERTY: Kd (nM)
Give bare numbers, in nM.

Give Kd for all binders that follow.
1. H4H12163P (antibody, human IgG4, V domains shown, Human IgG4 Fc with S108P hinge mutation (H4H)) VH: EVQLVESGGDLVQPGGSLRLSCAASGFTFSSYAMNWVRQGPGKGLEWVSAISGRGDSTYYADSVKGRLTISRDNSKNTLYLQMNSLRAEDTAVYYCVKEGEQLVYWYFDLWGRGTLVTVSS VL: DIQMTQSPSSLSASVGDRVTITCRASQTISNFLHWYQQKPGKAPKLLIYAASSLQSGVPSRFSGSGSGTDFTLTISSLQPEDFSTYFCQQSYTTPLTFGGGTKVEIK
2. H4H11683N (antibody, V domains shown, also called H2M11683N) VH: QVQLVESGGGVVQPGRSLRLSCVASGFTFSSYGIHWVRQAPGKGLEWVAVIWDDGNNINYSDSVKGRFIISRDNSRKTVYLQMNSLRGEDTAVYYCARDAPIAPVPDYWGQGTLVTVSS VL: DIQMTQSPSTLSASVGDRVTITCRASQSISSWLAWYQQKPGKAPKLLIYKASSLDTGVPSRFSGSGSGTEFTLTISSLQPDDFATYYCQQYNTYSYTFGLGTKLEIK

1: 0.646; 2: 0.468
